Entries and their pIC50
Target: tyrosinase
Conditions: mean ± SEM of three parallel measurements
pIC50: −log10 of the molar value.

molecule: Cn1cccc1C=C1SC(=NN2CCOCC2)N(c2ccccc2)C1=O [Compound 19]
pIC50: 1.71
--
molecule: O=C1C(=Cc2ccc(N(CCCl)CCCl)cc2)SC(=NN2CCOCC2)N1c1ccccc1 [Compound 11]
pIC50: 1.63
--
molecule: COc1ccc(C=C2SC(=NN3CCOCC3)N(c3ccccc3)C2=O)cc1 [Compound 6]
pIC50: 1.55
--
molecule: O=C1C(=Cc2ccc(O)cc2)SC(=NN2CCOCC2)N1c1ccccc1 [Compound 5]
pIC50: 1.55
--
molecule: O=C1C(=Cc2ccc(N3CCCC3)cc2)SC(=NN2CCOCC2)N1c1ccccc1 [Compound 12]
pIC50: 1.61

----------
Entries with reported pIC50 on Acetylcholinesterase (AChE) (Electrophorus electricus, UniProt O42275)
Sequence (O42275 24-633): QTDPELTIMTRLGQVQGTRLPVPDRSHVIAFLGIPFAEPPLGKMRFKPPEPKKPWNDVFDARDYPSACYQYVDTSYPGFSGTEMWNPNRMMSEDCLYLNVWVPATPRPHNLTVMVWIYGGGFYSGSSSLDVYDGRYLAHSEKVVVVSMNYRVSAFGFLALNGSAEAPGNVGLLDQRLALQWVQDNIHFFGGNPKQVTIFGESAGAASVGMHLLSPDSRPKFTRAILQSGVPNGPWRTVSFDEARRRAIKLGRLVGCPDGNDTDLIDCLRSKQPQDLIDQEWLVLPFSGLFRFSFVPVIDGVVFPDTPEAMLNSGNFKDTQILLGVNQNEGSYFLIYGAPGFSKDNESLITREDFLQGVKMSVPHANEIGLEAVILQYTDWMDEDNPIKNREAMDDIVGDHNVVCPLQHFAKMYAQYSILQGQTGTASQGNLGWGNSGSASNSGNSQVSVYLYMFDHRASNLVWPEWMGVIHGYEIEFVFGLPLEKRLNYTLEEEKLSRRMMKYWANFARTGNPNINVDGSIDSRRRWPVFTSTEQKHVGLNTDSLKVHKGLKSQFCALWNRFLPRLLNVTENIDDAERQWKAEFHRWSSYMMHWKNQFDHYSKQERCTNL
pIC50: −log10 of the molar value.

compound: O=C1C(=Cc2ccc(Br)cc2)SC(=NN2CCOCC2)N1c1ccccc1 [Compound 4]
pIC50: 4.56
//
compound: COc1ccc(C=C2SC(=NN3CCOCC3)N(c3ccccc3)C2=O)cc1OC [Compound 7]
pIC50: 4.52
//
compound: O=C1C(=Cc2ccc(N3CCCC3)cc2)SC(=NN2CCOCC2)N1c1ccccc1 [Compound 12]
pIC50: 4.76
//
compound: O=C1C(=Cc2ccco2)SC(=NN2CCOCC2)N1c1ccccc1 [Compound 15]
pIC50: 4.56
//
compound: COc1ccc(C=C2SC(=NN3CCOCC3)N(c3ccccc3)C2=O)cc1 [Compound 6]
pIC50: 4.54
//
compound: O=C1C(=Cc2ccc(N3CCCCC3)cc2)SC(=NN2CCOCC2)N1c1ccccc1 [Compound 13]
pIC50: 4.70
//
compound: O=C1C(=Cc2ccncc2)SC(=NN2CCOCC2)N1c1ccccc1 [Compound 23]
pIC50: 4.70
//
compound: O=C1C(=Cc2c[nH]c3ccccc23)SC(=NN2CCOCC2)N1c1ccccc1 [Compound 24]
pIC50: 4.71
//
compound: O=C1C(=Cc2ccc3ccccc3n2)SC(=NN2CCOCC2)N1c1ccccc1 [Compound 26]
pIC50: 4.70
//
compound: O=C1C(=Cc2ccc(N3CCOCC3)cc2)SC(=NN2CCOCC2)N1c1ccccc1 [Compound 14]
pIC50: 4.72
//
compound: CN(C)c1ccc(C=C2SC(=NN3CCOCC3)N(c3ccccc3)C2=O)cc1 [Compound 10]
pIC50: 4.58
//
compound: O=C1C(=Cc2ccc3[nH]ccc3c2)SC(=NN2CCOCC2)N1c1ccccc1 [Compound 25]
pIC50: 4.70

----------
Entries and their SI for BChE
Target: butyrylcholinesterase (BChE) (Equus caballus)
Construct: butyrylcholinesterase (BChE) from horse serum; from tissue; host or cells: horse serum
Sequence (P81908 whole entry): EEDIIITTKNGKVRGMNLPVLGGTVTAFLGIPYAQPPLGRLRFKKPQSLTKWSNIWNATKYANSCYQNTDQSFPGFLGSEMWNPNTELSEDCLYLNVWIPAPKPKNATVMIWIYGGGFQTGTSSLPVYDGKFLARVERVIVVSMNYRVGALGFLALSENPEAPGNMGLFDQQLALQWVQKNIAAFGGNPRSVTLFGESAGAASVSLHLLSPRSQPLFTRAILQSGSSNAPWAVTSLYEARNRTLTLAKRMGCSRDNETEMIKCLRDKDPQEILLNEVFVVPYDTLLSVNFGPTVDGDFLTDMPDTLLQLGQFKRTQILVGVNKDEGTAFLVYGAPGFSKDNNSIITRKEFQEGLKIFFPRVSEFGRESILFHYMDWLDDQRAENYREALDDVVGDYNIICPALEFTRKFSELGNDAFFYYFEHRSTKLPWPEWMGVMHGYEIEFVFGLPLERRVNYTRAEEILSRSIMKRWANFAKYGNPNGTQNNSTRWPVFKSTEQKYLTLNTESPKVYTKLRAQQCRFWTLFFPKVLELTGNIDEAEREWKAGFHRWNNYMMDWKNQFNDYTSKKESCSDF
Assay: biochemical
Settings: Selectivity index: IC50 for AChE/IC50 for BChE

mol: O=C1C(=Cc2ccncc2)SC(=NN2CCOCC2)N1c1ccccc1
tested-system: butyrylcholinesterase (BChE) (Equus caballus)
SI for BChE: 0.78

mol: O=C1C(=Cc2ccsc2)SC(=NN2CCOCC2)N1c1ccccc1
tested-system: butyrylcholinesterase (BChE) (Equus caballus)
SI for BChE: 0.69

mol: O=C1C(=Cc2ccccc2)SC(=NN2CCOCC2)N1c1ccccc1
tested-system: butyrylcholinesterase (BChE) (Equus caballus)
SI for BChE: 0.70

mol: O=C1C(=Cc2cccnc2)SC(=NN2CCOCC2)N1c1ccccc1
tested-system: butyrylcholinesterase (BChE) (Equus caballus)
SI for BChE: 0.75

mol: S=C(Nc1ccccc1)NN1CCOCC1
tested-system: butyrylcholinesterase (BChE) (Equus caballus)
SI for BChE: 1.10

mol: Cn1cccc1C=C1SC(=NN2CCOCC2)N(c2ccccc2)C1=O
tested-system: butyrylcholinesterase (BChE) (Equus caballus)
SI for BChE: 0.69

mol: O=C1C(=Cc2ccc([N+](=O)[O-])cc2)SC(=NN2CCOCC2)N1c1ccccc1
tested-system: butyrylcholinesterase (BChE) (Equus caballus)
SI for BChE: 0.74

mol: COc1cc(C=C2SC(=NN3CCOCC3)N(c3ccccc3)C2=O)cc(OC)c1OC
tested-system: butyrylcholinesterase (BChE) (Equus caballus)
SI for BChE: 0.71
